// note: pKi values for UniProt P21918 were reported in different studies
API: returns pKi as number; meaning -log10 of concentration in mol/L.

Before answering, review these 2 worked examples.
COMPOUND: Fc1ccc(OCCCN2CCC(c3ccc(Cl)cc3)CC2)cc1
RECORDED METRIC: pKi
VAL: 6.06
//
COMPOUND: CN1CCc2cc(Cl)c(O)cc2[C@H]2c3cccc(N4CCCC4=O)c3CC[C@@H]21
RECORDED METRIC: pKi
VAL: 7.57

Short answer please: pKi, UniProt P21918, entry CN1CCc2cc(O)ccc2Cc2[nH]c3ccccc3c2CC1
8.27

// same read-out, input: O=[N+]([O-])C1=Cc2cc(Cl)ccc2OC1C(F)(F)F (racemic)
5.55

----------
System: D(1B) dopamine receptor (Homo sapiens, UniProt P21918) | Read-out: pKi | Origin: multiple publications
Sequence (P21918 whole entry): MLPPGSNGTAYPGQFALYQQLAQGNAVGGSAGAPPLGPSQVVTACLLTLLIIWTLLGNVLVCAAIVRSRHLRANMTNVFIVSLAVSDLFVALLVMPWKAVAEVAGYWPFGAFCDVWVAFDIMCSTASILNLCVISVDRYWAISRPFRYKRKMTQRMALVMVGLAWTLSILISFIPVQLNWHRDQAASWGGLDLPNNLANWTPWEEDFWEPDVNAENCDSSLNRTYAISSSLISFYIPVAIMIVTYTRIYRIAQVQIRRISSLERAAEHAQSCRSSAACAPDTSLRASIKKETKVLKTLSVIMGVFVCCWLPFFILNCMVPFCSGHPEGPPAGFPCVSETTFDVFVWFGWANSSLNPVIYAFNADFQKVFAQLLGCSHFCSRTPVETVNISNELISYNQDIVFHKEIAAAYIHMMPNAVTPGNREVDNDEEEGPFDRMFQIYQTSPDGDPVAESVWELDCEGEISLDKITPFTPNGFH
Would you please state pKi, meaning minus log10 of the concentration in mol/L, as a bare number?

Given the compound O=C1CCc2ccc(OCCCCN3CCN(c4ccc(O)c5ncccc45)CC3)cc2N1 , what is its reported pKi?
5.47

And for COc1ccccc1N1CCN(CCCNC(=O)NCc2ccccc2-c2ccccc2)CC1 ?
5.48

For CN1CCc2cc(Cl)c(O)cc2[C@H]2c3cccc(C=O)c3CC[C@@H]21 then?
8.48

Similarly, O=C1CCc2ccc(OCCCCN3CCCN(c4ccc(O)c5c4OCC(=O)N5)CC3)cc2N1 ?
4.82

How about this compound: CC(=O)N(Cc1ccc([C@H]2CN(C)CCc3cc(Cl)c(O)cc32)cc1)C1CCC1
7.89

And Clc1ccc2c(c1)N=C(N1CCN(Cc3ccc(OCCCN4CCCCC4)cc3)CC1)c1ccccc1N2 ?
6.04

Now this one: Oc1ccc(N2CCN(CCCCOc3ccn4nccc4c3)CC2)c2c1OCCO2
4.72

Here is the next compound: CN1CCN(C2=Nc3cc(Cl)ccc3N(NC(=O)c3c(N)cccc3Cl)c3ccccc32)CC1
7.28

----------
System: D(1B) dopamine receptor (Homo sapiens, UniProt P21918) | Read-out: pKi | Origin: multiple publications
pKi: −log10 of the molar value.

COMPOUND: C[C@@]12CCC[C@]3(C)C(=O)O[C@H](C[C@@]4(CO4)[C@]1(O)CCc1ccoc1)[C@H]23
TARGET ENTITY: D(1B) dopamine receptor (Homo sapiens, UniProt P21918)
RECORDED METRIC: pKi
VAL: < 5.00

COMPOUND: COc1cc2c(cc1Cl)CCN1CCCc3ccccc3C21 (stereo not given)
TARGET ENTITY: D(1B) dopamine receptor (Homo sapiens, UniProt P21918)
RECORDED METRIC: pKi
VAL: < 5.00

COMPOUND: CCCCn1cc(CCCOc2ccc(C(=O)NCCCCN3CCCN(c4ccc(O)c5[nH]c(=O)ccc45)CC3)cc2OC)nn1
TARGET ENTITY: D(1B) dopamine receptor (Homo sapiens, UniProt P21918)
RECORDED METRIC: pKi
VAL: < 4.70

COMPOUND: Fc1cc(COC2CCN(Cc3cn4ccccc4n3)CC2)ccc1Cl
TARGET ENTITY: D(1B) dopamine receptor (Homo sapiens, UniProt P21918)
RECORDED METRIC: pKi
VAL: < 5.00

COMPOUND: Cc1cc(NC(=O)CN2CCC3(CCCN3Cc3ccc(F)c(F)c3)C2)ccc1F (stereo not given)
TARGET ENTITY: D(1B) dopamine receptor (Homo sapiens, UniProt P21918)
RECORDED METRIC: pKi
VAL: < 5.00

COMPOUND: CCCCN1CCC(COC(=O)c2ccc(N)c(OC)c2)CC1
TARGET ENTITY: D(1B) dopamine receptor (Homo sapiens, UniProt P21918)
RECORDED METRIC: pKi
VAL: < 5.00

COMPOUND: Cc1sc(C)c2c1CCCc1c[nH]nc1-2
TARGET ENTITY: D(1B) dopamine receptor (Homo sapiens, UniProt P21918)
RECORDED METRIC: pKi
VAL: < 5.00

COMPOUND: COc1cc(NC(=O)C2CC2)c(Cl)cc1C(=O)N[C@H]1CCN(Cc2ccccc2)C1
TARGET ENTITY: D(1B) dopamine receptor (Homo sapiens, UniProt P21918)
RECORDED METRIC: pKi
VAL: < 5.00

May I ask what pKi has been recorded for COc1ccc2c(c1)CCN(C)C2Cc1ccccc1C (stereo not given) ?
< 5.00

Okay, and N#Cc1cc(F)cc(C#Cc2csc(CF)n2)c1 ?
< 5.00
